system: MS2 coat protein; assay: apparent KD of MS2 coat protein; designed switch direction (-1 OFF switch, 1 ON switch): 1; higher = weaker reporter binding; conditions: input ligand: microRNA oligo, concentration not stated
Field: class. Source value: apparent KD of MS2 coat protein. Ranges: lower segment (below 60 nM), middle segment (60 nM to below 200 nM), upper segment (200 nM or more)

Some entries whose results are on file:
1) ACAUGAGACUCAGGAUAUGGUGUACCUACAUGUGACAUGAGGAUCACCCAUGUGGUAAGUAUGACUCAGAAGGGAGAGAUAUGU [Equivalance 76 - Jieux - Same State NG 2] (Eterna round: R96, puzzle: Same State NG 2) : middle segment
2) CCGCUCUAUGGAGGAUAUGGGCCUGCCCGGGAUAACGGGCCUAAUACAUGAGGAUCACCCAUGUCCCAGAAGGCCGCUAGAGCC [Errexexe] (Eterna round: R96, puzzle: Same State NG 2) : upper segment
3) AGCUAAAACGAAGGAUAUACAAACAUGAGGAUCACCCAUGUAUACAUGGUUUGUUGUGACUACAUGUAGAAGGUCGUACUAACA [SameState NG2 #17] (Eterna round: R96, puzzle: Same State NG 2) : upper segment
4) CCAACGUACAAUUUAGAUCUACAUGAGGAUCACCCAUGUACGGAGGAUAUCAGCUCGUGUAGAGCUGAGAAGGCCGAAUUAAUU [SSNG3/2-A4] (Eterna round: R96, puzzle: Same State NG 3) : upper segment

Hello team, could you let me know which band the following sequence falls into: ACAUGAGACUAAGGAUAUGGUGUACCUACAUGUGACAUGAGGAUCACCCAUGUGGUAAGUAUGACUCAGAAGGUAGAGAUAUGU [Equivalance 75 - Jieux - Same State NG 2] (Eterna round: R96, puzzle: Same State NG 2)
upper segment

Hello team, could you let me know which band the following sequence falls into: ACGCCCUCAGUAGGAUAUGGGAAAGGAAGUGUACCAGAAGGACUGGUUGAACAUGAGGAUCACCCAUGUUCAACGACAGGGCAA [PowerStrip SSNG 1.20] (Eterna round: R96, puzzle: Same State NG 1)
lower segment

Hello team, could you let me know which band the following sequence falls into: UACAAACGCGGAGGAUAUGGGCGAGGCGCAGAGGUCUGCGUCAAAACAUGAGGAUCACCCAUGUCCCAGAAGGCCGCGCAAACU [Anorra] (Eterna round: R96, puzzle: Same State NG 2)
middle segment

Hello team, could you let me know which band the following sequence falls into: CUGAGCAAUCAAGGAUAUCACGUCGAUUAGACGUGAGAAGGUGAUCAUAACAUGAGGAUCACCCAUGUAUUACAUGGAGCUCAG [Brourd's SSNG1/1-A2 mod 1] (Eterna round: R96, puzzle: Same State NG 1)
middle segment

Hello team, could you let me know which band the following sequence falls into: GCUAGAAUUAAAGCCAACAUGAGGAUCACCCAUGUAUGUUGGCAGGAUAUCGUUUGCUUUGCAAACGAGAAGGGCCAUACUAGC [JL SSNG3 1.08] (Eterna round: R96, puzzle: Same State NG 3)
middle segment

Hello team, could you let me know which band the following sequence falls into: UUGAAGAAUUAAGGAUAUCGAGUCGUCAGAUUAAACAUGAGGAUCACCCAUGUGGGUUGCGGUAUCGAGAAGGUAAAUUACAAG [JL JR Sub099 mod 2] (Eterna round: R96, puzzle: Same State NG 2)
lower segment

Hello team, could you let me know which band the following sequence falls into: GAGCCAGUCCGAGGAUAUUCAUAUUAAACAUGAGGAUCACCCAUGUAGGCUCAGAAAGAGCCUUGGGAGAAGGCGGACUGGCUC [Xeonanisa<<1] (Eterna round: R96, puzzle: Same State NG 2)
middle segment

Hello team, could you let me know which band the following sequence falls into: GUAAAGAAUUAAGGAUAUUGAAUACAUAUGUUUAACAUGAGGAUCACCCAUGUGGGUUGCGGUAUCGAGAAGGUAAAAUAAAAG [Mat - Same State NG 2 - JL mod - D7] (Eterna round: R96, puzzle: Same State NG 2)
middle segment

Hello team, could you let me know which band the following sequence falls into: AGAUCAUGACGAGGAUAUGGUACAUGAGGAUCACCCAUGUAUGUACCAUAAUUAGUAUUAGGAAACCAGAAGGCGUCGUGGUCA [JL SSNG2 1.18] (Eterna round: R96, puzzle: Same State NG 2)
lower segment

Hello team, could you let me know which band the following sequence falls into: UGUUGUAUUACAGGAUAUCUAUGGUUUUUAUUUAGAGAAGGGUAUUCACAUGAGGAUCACCCAUGUAUAUACGAGGAAGUUGUG [JMF's solution 58] (Eterna round: R96, puzzle: Same State NG 1)
lower segment

Hello team, could you let me know which band the following sequence falls into: GCCAUCCAAUGAGGAUAUGGCACCGUUUCGGUGCCAGAAGGCAUGUCAAUUGACAUGAGGAUCACCCAUGUAUUAUGGAUGGCA [JL Fiskers NG1ss - 33 mod 2] (Eterna round: R96, puzzle: Same State NG 1)
upper segment

Hello team, could you let me know which band the following sequence falls into: GCUGCAAUAAACGCCUACAUGAGGAUCACCCAUGUAUGUAGGCAGGAUAUCGUUUGCAAAGCAAACGAGAAGGGCCGUAGUAGC [Mat - Same State NG 3 - JL Mod - D35] (Eterna round: R96, puzzle: Same State NG 3)
lower segment

Hello team, could you let me know which band the following sequence falls into: AAACAUGAGCGAGGAUAUGCGGACGAUUACGCUGUAGAAGGCGCAUGUAAAACAACAUGAGGAUCACCCAUGUCAUGUACAUGA (Eterna round: R96, puzzle: Same State NG 1)
lower segment
